# PROTOCOL SUMMARY: Pharmacokinetic analysis of actein in serum and urine (HPLC-MS)
# Assay type: in vivo
# CONDITION LABEL: female, Sprague-Dawley, rat, urine, oral; rats; 35.7 mg/kg; 24 h; read-out: level of actein in urine
ATTRIBUTE MEASURED: concentration at 24 h (ng/mL)
Give bare numbers, in ng/mL.

## Task Requested read-out: concentration at 24 h. Entry: CC(=O)O[C@@H]1C[C@@]23C[C@@]24CC[C@H](O[C@@H]2OC[C@@H](O)[C@H](O)[C@H]2O)C(C)(C)[C@@H]4CC[C@H]3[C@]2(C)C[C@@H]3O[C@]4(C[C@@H](C)[C@@H]3[C@@]12C)O[C@H](O)[C@@]1(C)O[C@@H]41
## Result 777

###

# PROTOCOL SUMMARY: Pharmacokinetic analysis of actein in serum and urine (HPLC-MS)
# Type: in vivo
# CONDITION LABEL: female, Sprague-Dawley, rat, serum, oral; rats; 35.7 mg/kg; 24 hours; read-out: level of actein in serum
ATTRIBUTE MEASURED: concentration at 24 h (ng/mL)
One number for each entry, in ng/mL.

## Task Which value of concentration at 24 h has been reported for CC(=O)O[C@@H]1C[C@@]23C[C@@]24CC[C@H](O[C@@H]2OC[C@@H](O)[C@H](O)[C@H]2O)C(C)(C)[C@@H]4CC[C@H]3[C@]2(C)C[C@@H]3O[C@]4(C[C@@H](C)[C@@H]3[C@@]12C)O[C@H](O)[C@@]1(C)O[C@@H]41 [actein] in the records?
## Result 102
